B1: CPEB3 Ribozyme (parent)
chain: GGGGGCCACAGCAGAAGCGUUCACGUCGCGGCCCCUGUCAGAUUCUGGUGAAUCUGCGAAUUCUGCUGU

Variants of: B1
measurement_protocol: self-cleavage, relative activity (ratio to wild type); higher = more cleavage; co-transcriptional
value_type: self-cleavage
// no unit, no text: just the number

GGGGGCCACAGCAGACGCGUUCACGUCGCGGCCCCUGUCAGAUUCUGGUGAAUCUGGGAAUUCUGCUGU [A16C C57G] : 0.0856

Lookup: Name the recorded self-cleavage of the item GGGGGCCACAGCAGAAGCGUUCACGUCGCGGCCCCUGUCAGAUGCUGGUGACUCUGCGAAUUCUGCUGU [U44G A52C] in your answer.
Found: 0.976

Lookup: Specify reported self-cleavage for the variant shown: GGGGGCCACAGCAGAAGCGUUCACGUCGCGGCCCCUGUCAGAUUCUGGUGAAUCUGCGAAUGCCGCUGU [U62G U64C]
Found: 0.502

Lookup: Entry GGGGGCCACAGCAGAAGCGUUCACGUCGCGGCCCCUGUCAUAUUCUGGUGAAUCUGUGAAUUCUGCUGU [G41U C57U] needs its self-cleavage filled in; supply it.
Found: 0.243

Lookup: Indicate its recorded self-cleavage; the variant in question is GGGGGCCACAACAGAAGCGUUCACGUCGCGGCCCCUGUCAGAUUCUGGUGAAUCUGCGAAUUCUGAUGU [G11A C66A]
Found: 0.818

Lookup: Find the measured self-cleavage of GAGGGCCACAGCAGAAGCGUUCACGUCGCGGCCCCUGUCCGAUUCUGGUGAAUCUGCGAAUUCUGCUGU [G2A A40C] and report it.
Found: 0.0341
